# reported Inhibition; entries follow
System: Candida albicans
Conditions: Concentration 32 ug.mL-1; ASSAY_TEST Inhibition of Fungal Growth; detection method Absorption (OD530)
Description: Antifungal activity against Candida albicans ATCC 90028 (CO-ADD:FG_001); MIC in YNB media using NBS plates, by OD630
Measured potencies and affinities stand elsewhere.
OBSERVATION_TYPE: Inhibition (%)

N#Cc1ccccc1NC(=O)Cn1nc2c(Oc3ccccc3)nccn2c1=O	-0.12
O=c1c2sccc2n2c(=O)n(Cc3cccc(C(F)(F)F)c3)nc2n1Cc1cccs1	35.9
CCc1ccccc1Sc1nccn2c(=O)n(CC(=O)Nc3c(C)cccc3C)nc12	3.49
O=C(Cn1nc2ccc(-c3ccccc3)nn2c1=O)Nc1ccc(Cl)c(C(F)(F)F)c1	14.71
COc1cc(NC(=O)CSc2nnc3c(=O)n(-c4ccccc4)ccn23)cc(OC)c1	0.46
CCc1nnc2c(S(=O)(=O)N(Cc3ccc(F)cc3)c3cccc(Cl)c3)cccn12	5.46
O=C(Cn1nc2c3cc(-c4ccc(Cl)cc4)nn3ccn2c1=O)NC1CCCC1	2.49
O=C(CSc1nc2ccccc2n2cnnc12)N1CCN(c2ccc(F)cc2)CC1	1.33
COc1ccc(-c2cc3c4nnc(CCC(=O)NCc5cccs5)n4ccn3n2)cc1	-0.32
O=C(Cn1nc2c(Oc3ccccc3)nccn2c1=O)Nc1ccc(Br)cc1F	5.04
COc1ccc(Cl)cc1NC(=O)Cn1nc2c3cc(-c4ccc(C)cc4)nn3ccn2c1=O	14.91
O=C(Cn1nc2ccc(SCc3ccc(Cl)cc3)nn2c1=O)NCc1ccc2c(c1)OCO2	13.27
COc1cccc(Cn2nc3ccc(-c4ccccc4)nn3c2=O)c1	2.39
CCOc1ccc(-n2ccn3c(SCC(=O)c4ccc(OC)c(OC)c4)nnc3c2=O)cc1	3.75
Cc1cc2nn(CC(=O)Nc3ccc(F)cc3C)c(=O)n2c(Nc2ccc(F)cc2)n1	9.27
Cc1c(Cl)cccc1-n1ccn2c(=O)n(Cc3ccc(F)cc3)nc2c1=O	6.3
CCc1nnc2c(S(=O)(=O)N(Cc3cccc(F)c3)c3ccc(C)c(C)c3)cccn12	3.78
COc1ccc(OC)c(NC(=O)Cn2nc3ccc(-c4ccc(C)cc4)nn3c2=O)c1	0.83
O=c1c2nnc(SCc3ccccc3Cl)n2ccn1-c1ccc(F)cc1	2.71
O=C(CCc1nnc2c3cc(-c4ccc(Cl)cc4)nn3ccn12)N1CCN(c2ccccn2)CC1	-0.78

* * *

# Inhibition listing for each entry below
System: Candida albicans
Settings: Concentration 32 ug.mL-1; ASSAY_TEST Inhibition of Fungal Growth; detection method Absorption (OD530)
Potency and affinity values are given separately.
OBSERVATION_TYPE: Inhibition (%)

Cc1ccc(-c2cc3c4nn(CC(=O)NCc5ccccc5Cl)c(=O)n4ccn3n2)cc1C	-1.05
N#CCn1nc2n(Cc3ccccc3)c(=O)c3ccc(C(=O)NC4CCCCC4)cc3n2c1=O	1.65
O=c1c2sccc2n2c(=S)[nH]nc2n1CC1CCCO1 (stereo not given)	-1.18
O=C(Cn1nc2c(=O)n(-c3ccc(Br)cc3)ccn2c1=O)Nc1ccc(F)cc1F	0.41
Cc1cc2nn(CC(=O)Nc3ccc(F)cc3F)c(=O)n2c(Nc2ccc(F)c(C)c2)n1	11.92
O=C(Cn1nc2c3c4c(sc3ncn2c1=O)CCCC4)N1CCc2ccccc2C1	4.18
Cc1ccc(-c2ccc3nn(CC(=O)NCc4ccc(Cl)cc4)c(=O)n3n2)cc1C	6.17
COc1ccccc1NC(=O)Cn1c(=O)c2nnc(C(C)C)n2c2ccccc21	-0.06
CSc1cccc(NC(=O)Cn2nc3c(Sc4cccc(F)c4)nccn3c2=O)c1	3.02
COc1ccccc1NC(=O)Cn1nc2c(SC3CCCCC3)nccn2c1=O	12.37
